Source of measurements: the supplement of paper PMC11451515

# Test system: SEM cells
# procedure_text: cell viability relative to DMSO control; higher = less cytotoxic
# condition_set: RPMI 5 mM glucose + 10% FBS; 48 h; 0.0632 µM

{"columns": ["compound", "units", "cell viability"],
 "data": [
  ["O=C1\\C=C(OC2=C(C=CC=C12)C3=CC=CC4=C3SC5=C4C=CC=C5)\\N6CCOCC6", "%", 109],
  ["N#Cc1cc(NC(=O)Nc2nnc(-c3ccncc3)s2)ccc1-c1cn[nH]c1", "%", 96.4],
  ["CCOc1cc(C(=O)Nc2ccc(Cl)c(-c3nc4ccccc4[nH]3)c2)cc(OCC)c1OCC", "%", 94.2],
  ["CCC[C@H](Nc1nc(-c2ccc(NC(=O)NCC)c(OC)c2)ncc1C)c1cccnc1", "%", 16.5],
  ["CC(C)(C)NCC(O)c1ccc(O)c(CO)c1 (configuration not stated)", "%", 108],
  ["C[C@]12CC[C@H]3[C@@H](CC[C@@]45O[C@@H]4C(O)=C(C#N)C[C@]35C)[C@@H]1CC[C@@H]2O", "%", 90.4],
  ["O=C(Nc1nc2cccc(-c3ccc(CN4CC[S+](=O)([O-])CC4)cc3)n2n1)C1CC1", "%", 136],
  ["CN(C[C@@H]1COCCO1)[S+]([O-])(=O)NC2=CC3=C(C=C2)\\C=C/C4=C(C=C(C=N4)C5=C[N](C)N=C5)C3=O", "%", 85.5],
  ["Nc1cc(N2CCCCC2)nc(N)[n+]1[O-]", "%", 106],
  ["CC(O)(C[S+](=O)([O-])c1ccc(F)cc1)C(=O)Nc1ccc(C#N)c(C(F)(F)F)c1 (configuration not stated)", "%", 88.7],
  ["Cc1nnc(C(C)C)n1[C@@H]1C[C@H]2CC[C@@H](C1)N2CC[C@H](NC(=O)C1CCC(F)(F)CC1)c1ccccc1", "%", 86.1],
  ["CCN(CC)CCCC(C)Nc1ccnc2cc(Cl)ccc12 (configuration not stated)", "%", 109],
  ["CCCCCN(C)CCC(O)(P(=O)([O-])O)P(=O)(O)O", "%", 75.5],
  ["C[C@@H](Cc1cc2c(c(C(N)=O)c1)N(CCCO)CC2)NCCOc1ccccc1OCC(F)(F)F", "%", 119],
  ["OC1CCC(CC1)N2\\C=N/C3=C(C2=N)C(=C([N]3CC4=CC=CC=C4)C5=CC=CC=C5)C6=CC=CC=C6 (configuration not stated)", "%", 102],
  ["COCCCC/C(=N\\OCCN)c1ccc(C(F)(F)F)cc1", "%", 92.7],
  ["CC[C@H]1OC(=O)[C@H](C)[C@@H](O[C@H]2C[C@@](C)(OC)[C@@H](O)[C@H](C)O2)[C@H](C)[C@@H](O[C@@H]2O[C@H](C)C[C@H](N(C)C)[C@H]2O)[C@](C)(O)C[C@@H](C)/C(=N\\OCOCCOC)[C@H](C)[C@@H](O)[C@]1(C)O", "%", 111],
  ["NC(=O)N1CCC(CC(=O)N2CCC([C@H]3c4ncc(Br)cc4CCc4cc(Cl)cc(Br)c43)CC2)CC1", "%", 111],
  ["O=c1oc2cc(O)ccc2s1", "%", 103],
  ["NCCOc1cc(C(=O)Nc2cc(OCCN)c3ccccc3n2)nc(C(=O)Nc2cc(OCCN)c3ccccc3n2)c1", "%", 22.1],
  ["CC(C)(Sc1cc(C(C)(C)C)c(O)c(C(C)(C)C)c1)Sc1cc(C(C)(C)C)c(O)c(C(C)(C)C)c1", "%", 80.7],
  ["O=C(CCCN1CCC(O)(c2ccc(Cl)cc2)CC1)c1ccc(F)cc1", "%", 113],
  ["CN(CC(=O)N(Cc1ccc(C2CCCCC2)cc1)c1ccc(C(=O)O)c(O)c1)[S+](=O)([O-])c1c(F)c(F)c(F)c(F)c1F", "%", 88.9],
  ["CN1CCC(CNc2ccc3ncc(-c4cccc(OC(F)(F)F)c4)n3n2)CC1", "%", 96.4],
  ["c1ccc2c(CN3CCNCC3)cccc2c1", "%", 97.4],
  ["COc1cccc(N(C)C(=S)Oc2ccc3c(c2)CCCC3)n1", "%", 104],
  ["CO[C@H]1C[C@@H]2CC[C@@H](C)[C@@](O)(O2)C(=O)C(=O)N2CCCC[C@H]2C(=O)O[C@H]([C@@H](C)C[C@@H]2CC[C@@H](O)[C@H](OC)C2)CC(=O)[C@H](C)/C=C(\\C)[C@@H](O)[C@@H](OC)C(=O)[C@H](C)C[C@H](C)/C=C/C=C/C=C/1C", "%", 80.6],
  ["OC(=O)CNC(=O)\\C1=C(/O)C2=CC=CC=C2N(CC3=CC=CC=C3)C1=O", "%", 17.9],
  ["Cc1noc(N[S+](=O)([O-])c2ccc(N)cc2)c1C", "%", 96.2],
  ["CC(C)[C@H]1C(=O)N[C@H](CO)Cc2c[nH]c3cccc(c23)N1C", "%", 99.1],
  ["Cc1nc2ccc(CN(C)c3ccc(C(=O)N[C@@H](CCC(=O)O)C(=O)O)s3)cc2c(=O)[nH]1", "%", 118],
  ["N#Cc1c(N(CC(=O)[O-])CC(=O)[O-])sc(C(=O)[O-])c1CC(=O)[O-].O.O.O.O.O.O.O.[Sr+2].[Sr+2]", "%", 149],
  ["CNC(=O)c1nn(C)c2c1C(C)(C)Cc1cnc(Nc3ccc(N4CCN(C)CC4)cc3)nc1-2", "%", 86.5],
  ["COc1cccc(OC)c1-c1cc(C(=O)NC2(C(=O)O)C3CC4CC(C3)CC2C4)nn1-c1ccnc2cc(Cl)ccc12 (configuration not stated)", "%", 107],
  ["O=C(Nc1cccnc1)N1CCC(Cc2cccc(Oc3ccc(C(F)(F)F)cn3)c2)CC1", "%", 100],
  ["NC[C@H](O)c1ccc(O)c(O)c1", "%", 97.7],
  ["CC1(C)CCC(C)(C)c2cc(NC(=O)c3ccc(C(=O)O)cc3)ccc21", "%", 119]
]}

---

# Test system: NOMO1
# procedure_text: cell viability relative to DMSO control; higher = less cytotoxic
# condition_set: RPMI 5 mM glucose + 10% FBS; 48 h; 0.00702 µM
Below: a set of entries, each annotated with reported cell viability.

{"columns": ["smiles_entry", "cell viability [%]"],
 "data": [
  ["c1ccc2c(CN3CCNCC3)cccc2c1", 115],
  ["O=C(O)c1cccc(-c2noc(-c3ccccc3F)n2)c1", 106],
  ["COc1cc(N2CCN(C)CC2)ccc1Nc1nc(N)c(C(=O)c2c(Cl)cccc2Cl)s1", 103],
  ["OC1=C(Cl)C=C(N\\C2=C(\\C(=O)NC2=O)C3=C(C=CC=C3)[N+]([O-])=O)C=C1", 116],
  ["NC(=O)N1CCC(CC(=O)N2CCC([C@H]3c4ncc(Br)cc4CCc4cc(Cl)cc(Br)c43)CC2)CC1", 109],
  ["C[C@]12CC[C@H]3[C@@H](CC[C@@]45O[C@@H]4C(O)=C(C#N)C[C@]35C)[C@@H]1CC[C@@H]2O", 117]
]}

---

# Test system: NOMO1
# procedure_text: cell viability relative to DMSO control; higher = less cytotoxic
# condition_set: RPMI 5 mM glucose + 10% dialyzed FBS; 48 h; 0.00702 µM
Below, each entry is listed alongside its reported cell viability.
measured_quantity: cell viability (%)

{"columns": ["smiles_entry", "measured_result"],
 "data": [
  ["COc1ccc(-n2c(C)c([N+](=O)[O-])c3ccc(O)cc32)cc1", 126],
  ["Cc1nnc(C(C)C)n1[C@@H]1C[C@H]2CC[C@@H](C1)N2CC[C@H](NC(=O)C1CCC(F)(F)CC1)c1ccccc1", 82.6],
  ["O=C(O)c1cccnc1", 116],
  ["O=C1c2ccccc2-c2n[nH]c3cccc1c23", 98.3],
  ["OC(=O)CNC(=O)\\C1=C(/O)C2=CC=CC=C2N(CC3=CC=CC=C3)C1=O", 87.9],
  ["CCOc1ccccc1N/N=C1/C(=O)N(c2nc(-c3ccccc3)cs2)N=C1C", 103],
  ["C[C@@H]1CC[C@@]2(CC[C@]3(C)\\C(=C/C[C@@H]4[C@@]5(C)C[C@@H](O)[C@H](O)[C@@](C)(CO)[C@@H]5CC[C@@]34C)[C@@H]2[C@H]1C)C(O)=O", 120],
  ["CCC(=O)O[C@@]1(CC[C@H]2[C@@H]3CCC/4=C/C(=O)CC[C@]4(C)[C@H]3CC[C@]12C)C(=O)CO", 102],
  ["O=C(Nc1ccccc1)Nc1ccc(-c2ccc(C(=O)[C@@H]3CCC[C@H]3C(=O)O)cc2)cc1", 114]
]}
